Biological target: recombinant human CD200 Fc Chimera (human) (UniProt P41217)
Experiment: SPR (Biacore), CD200 captured by anti-Fc (human) on CM5, Fab injected
Items are presented alongside their recorded kon.
The reply should contain only the number, in M⁻¹ s⁻¹.

The examples below pair each entry with its known result.
{"columns": ["binder", "units.symbol", "kon"],
 "data": [
  ["TPP-741 (Fab, V domains shown) VH: QVQLVQSGAEVKKPGASVKVSCKASGYSFTDYIILWVRQAPGQRLEWIGHIDPYYGSSNYNLKFKGRVTITRDTSASTAYMELSSLRSEDTAVYYCARSKRDYFDYWGQGTLVTVSS VL: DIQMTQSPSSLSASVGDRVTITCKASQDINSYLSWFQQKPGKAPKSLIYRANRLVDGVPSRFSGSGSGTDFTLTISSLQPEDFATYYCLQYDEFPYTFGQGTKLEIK", "M⁻¹ s⁻¹", "1.74e+06"],
  ["TPP-751 (Fab, V domains shown) VH: QVQLVQSGAEVKKPGASVKVSCKASGYSFTDYIILWVRQAPGQRLEWMGHIDPYYGSSNYNLKFKGRVTITRDTSASTAYMELSSLRSEDTAVYYCGRSKRDYFDYWGQGTLVTVSS VL: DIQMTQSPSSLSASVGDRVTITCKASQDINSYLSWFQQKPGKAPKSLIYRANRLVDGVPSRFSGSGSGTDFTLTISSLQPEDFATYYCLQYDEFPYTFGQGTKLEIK", "M⁻¹ s⁻¹", "2.11e+06"],
  ["TPP-100 (Fab, V domains shown) VH: EVQLQQSGPELVKPGASLKMSCKASGYSFTDYIILWVKQNHGKSLEWIGHIDPYYGSSNYNLKFKGKATLTVDKSSSTAYMQLNSLTSEDSAVYYCGRSKRDYFDYWGQGTTLTVSS VL: DIQMTQSPSSMYASLGERVTITCKASQDINSYLSWFQQKPGKSPKTLIYRANRLVDGVPSRFSGSGSGQDYSLTISSLEYEDMGIYYCLQYDEFPYTFGGGTKLEIK", "M⁻¹ s⁻¹", "1.69e+06"]
]}

Quick note, kon for TPP-101 (Fab, V domains shown) VH: QVQLQQSGSELKKPGASVKISCKASGYSFTDYIILWVRQNPGKGLEWIGHIDPYYGSSNYNLKFKGRVTITADQSTTTAYMELSSLRSEDTAVYYCGRSKRDYFDYWGQGTTLTVSS VL: DIQMTQSPSSLSASIGDRVTITCKASQDINSYLSWFQQKPGKAPKLLIYRANRLVDGVPSRFSGSGSGTDYTLTISSLQPEDFAVYYCLQYDEFPYTFGGGTKLEIK landed at 2.91e+06
